- System: NCI/ADR-RES
- assay: NCI tumour cell line growth inhibition, 48 h
Activity calls are given as the source filed them. No stated cut-off is given here; in the data, active = GI50 up to about 1.1 µM and inactive = higher.
experimental_readout: GI50

INSERT INTO results (molecule, experimental_readout, reading) VALUES
  ('CC(C)=NOC(=O)Nc1cccc2c1OCO2', 'GI50', '> 100 µM (inactive)'),
  ('COC(=O)[C@H](Cc1ccccc1)NC(=O)N(CCNC(=O)OC(C)(C)C)c1ccccc1', 'GI50', '> 100 µM (inactive)'),
  ('CC(=O)Oc1cc(S(=O)(=O)Nc2n[nH]c(Nc3ccc(C)cc3)n2)c(S)cc1Cl', 'GI50', '> 100 µM (inactive)'),
  ('CN(C)c1nc2oc(-c3ccccc3)c(-c3ccccc3)c2c2nnnn12', 'GI50', '> 100 µM (inactive)'),
  ('Cc1c(C=C(C#N)C#N)c(=O)n(C)c(=O)n1C', 'GI50', '> 100 µM (inactive)'),
  ('O=C1c2ccccc2NC(=O)C2C1C(c1ccccc1)CC2(O)c1ccccc1 (stereo unspecified)', 'GI50', '31.7 µM (inactive)');
